target: human mitochondrial MetRS (Homo sapiens, UniProt Q96GW9)
Sequence (Q96GW9 30-593): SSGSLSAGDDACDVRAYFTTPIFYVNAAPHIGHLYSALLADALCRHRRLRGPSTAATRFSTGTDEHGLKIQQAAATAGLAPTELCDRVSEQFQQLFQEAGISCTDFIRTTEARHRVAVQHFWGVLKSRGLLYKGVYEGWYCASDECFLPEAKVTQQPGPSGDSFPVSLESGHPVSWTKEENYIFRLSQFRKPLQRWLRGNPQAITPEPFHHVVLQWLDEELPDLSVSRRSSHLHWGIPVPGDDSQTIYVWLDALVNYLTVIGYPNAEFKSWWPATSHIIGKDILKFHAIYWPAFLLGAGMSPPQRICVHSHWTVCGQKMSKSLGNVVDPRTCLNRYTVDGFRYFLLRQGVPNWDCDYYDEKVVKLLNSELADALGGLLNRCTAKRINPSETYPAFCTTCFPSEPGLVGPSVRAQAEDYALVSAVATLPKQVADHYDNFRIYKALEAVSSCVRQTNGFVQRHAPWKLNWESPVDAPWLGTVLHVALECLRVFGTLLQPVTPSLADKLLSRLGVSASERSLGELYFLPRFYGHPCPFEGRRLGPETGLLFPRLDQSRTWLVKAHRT
Please note: IC50 exactly at 5 µM is False. Only values below 5 µM get True.

IC50 under 5 µM? Item: O=C(NCCCNCc1cc(Cl)cc(Cl)c1)Nc1cccc(F)c1 [Compound 18]
True

IC50 under 5 µM? Item: COc1cc(Cl)cc(CNCCCNC(=O)Nc2ccsc2)c1 [Compound 27]
False

IC50 under 5 µM? Item: COc1cc(Cl)cc(CNCCCNC(=O)Nc2ccccc2)c1 [Compound 4]
False

IC50 under 5 µM? Item: O=C(NCCCNCc1cc(Cl)cc(Cl)c1)Nc1cccs1 [Compound 28]
True

IC50 under 5 µM? Item: O=C(NCCCNCc1cc(Cl)cc(Cl)c1)Nc1cccc(O)c1 [Compound 17]
False

IC50 under 5 µM? Item: O=C(NCCCNCc1cc(Cl)cc(Cl)c1)Nc1ccccc1 [Compound 2]
False

IC50 under 5 µM? Item: O=C(NCCCNCc1cc(Cl)cc(Cl)c1)Nc1ccccc1O [Compound 16]
True

IC50 under 5 µM? Item: O=C(NCCCNCc1cc(Cl)cc(Cl)c1)Nc1ccsc1 [Compound 26]
True
